Every entry's value here was drawn from the supplement of paper PMC5998384.

Could you please report measured melting temperature for the items listed next?
System: HeLa Kyoto
Method notes: melting temperature (median over replicates), in situ; higher = more thermally stable
Measurement context: cell cycle stage: mitosis
Returns: string containing the numeric result and its unit.

MLQQDSNDDTEDVSLFDAEEETTNRPRKAKIRHPVASFFHLFFRVSAIIVYLLCGLLSSSFITCMVTIILLLSCDFWAVKNVTGRLMVGLRWWNHIDEDGKSHWVFESRKESSQENKTVSEAESRIFWLGLIACPVLWVIFAFSALFSFRVKWLAVVIMGVVLQGANLYGYIRCKVRSRKHLTSMATSYFGKQFLRQNTGDDQTS [TVP23B] ... 56 °C
MLFLALGSPWAVELPLCGRRTALCAAAALRGPRASVSRASSSSGPSGPVAGWSTGPSGAARLLRRPGRAQIPVYWEGYVRFLNTPSDKSEDGRLIYTGNMARAVFGVKCFSYSTSLIGLTFLPYIFTQNNAISESVPLPIQIIFYGIMGSFTVITPVLLHFITKGYVIRLYHEATTDTYKAITYNAMLAETSTVFHQNDVKIPDAKHVFTTFYAKTKSLLVNPVLFPNREDYIHLMGYDKEEFILYMEETSEEKRHKDDK [TMEM70] ... 53.4 °C

Let us move to another entry and its melting temperature.
// recorded melting temperature for MAALAPLPPLPAQFKSIQHHLRTAQEHDKRDPVVAYYCRLYAMQTGMKIDSKTPECRKFLSKLMDQLEALKKQLGDNEAITQEIVGCAHLENYALKMFLYADNEDRAGRFHKNMIKSFYTASLLIDVITVFGELTDENVKHRKYARWKATYIHNCLKNGETPQAGPVGIEEDNDIEENEDAGAASLPTQPTQPSSSSTYDPSNMPSGNYTGIQIPPGAHAPANTPAEVPHSTGVASNTIQPTPQTIPAIDPALFNTISQGDVRLTPEDFARAQKYCKYAGSALQYEDVSTAVQNLQKALKLLTTGRE [VTA1] : 50.4 °C

* * *

Test system: HeLa Kyoto
Method notes: solubility in G1/S (NP-40 vs SDS abundance) (log2 ratio); higher = more soluble
Measurement context: cell cycle stage: G1/S
Cut-off -0.2 on solubility in G1/S (log2), inclusive. At or above means satisfied; below means not satisfied.

MPHRKERPSGSSLHTHGSTGTAEGGNMSRLSLTRSPVSPLAAQGIPLPAQLTKSNAPVHIDVGGHMYTSSLATLTKYPDSRISRLFNGTEPIVLDSLKQHYFIDRDGEIFRYVLSFLRTSKLLLPDDFKDFSLLYEEARYYQLQPMVRELERWQQEQEQRRRSRACDCLVVRVTPDLGERIALSGEKALIEEVFPETGDVMCNSVNAGWNQDPTHVIRFPLNGYCRLNSVQVLERLFQRGFSVAASCGGGVDSSQFSEYVLCREERRPQPTPTAVRIKQEPLD [KCTD15] ... satisfied
MSKGRAEAAAGAAGILLRYLQEQNRPYSSQDVFGNLQREHGLGKAVVVKTLEQLAQQGKIKEKMYGKQKIYFADQDQFDMVSDADLQVLDGKIVALTAKVQSLQQSCRYMEAELKELSSALTTPEMQKEIQELKKECAGYRERLKNIKAATNHVTPEEKEQVYRERQKYCKEWRKRKRMATELSDAILEGYPKSKKQFFEEVGIETDEDYNVTLPDP [PSMC3IP] ... satisfied
MHQQKRQPELVEGNLPVFVFPTELIFYADDQSTHKQVLTLYNPYEFALKFKVLCTTPNKYVVVDAAGAVKPQCCVDIVIRHRDVRSCHYGVIDKFRLQVSEQSQRKALGRKEVVATLLPSAKEQQKEEEEKRLKEHLTESLFFEQSFQPENRAVSSGPSLLTVFLGVVCIAALMLPTLGDVESLVPLYLHLSVNQKLVAAYILGLITMAILRT [MOSPD1] ... satisfied

# input Evaluate MATLRRLREAPRHLLVCEKSNFGNHKSRHRHLVQTHYYNYRVSFLIPECGILSEELKNLVMNTGPYYFVKNLPLHELITPEFISTFIKKGSCYALTYNTHIDEDNTVALLPNGKLILSLDKDTYEETGLQGHPSQFSGRKIMKFIVSIDLMELSLNLDSKKYERISWSFKEKKPLKFDFLLAWHKTGSEESTMMSYFSKYQIQEHQPKVALSTLRDLQCPVLQSSELEGTPEVSCRALELFDWLGAVFSNVDLNNEPNNFISTYCCPEPSTVVAKAYLCTITGFILPEKICLLLEHLCHYFDEPKLAPWVTLSVQGFADSPVSWEKNEHGFRKGGEHLYNFVIFNNQDYWLQMAVGANDHCPP [RPP40] : solubility in G1/S (log2) at minimum -0.2?
# output not satisfied

# input Is it the case that MAGAENWPGQQLELDEDEASCCRWGAQHAGARELAALYSPGKRLQEWCSVILCFSLIAHNLVHLLLLARWEDTPLVILGVVAGALIADFLSGLVHWGADTWGSVELPIVGKAFIRPFREHHIDPTAITRHDFIETNGDNCLVTLLPLLNMAYKFRTHSPEALEQLYPWECFVFCLIIFGTFTNQIHKWSHTYFGLPRWVTLLQDWHVILPRKHHRIHHVSPHETYFCITTGWLNYPLEKIGFWRRLEDLIQGLTGEKPRADDMKWAQKIK [TMEM189] has solubility in G1/S (log2) reaching or exceeding -0.2?
# output not satisfied

# input Reported solubility in G1/S (log2) at or above -0.2? MAADISESSGADCKGDPRNSAKLDADYPLRVLYCGVCSLPTEYCEYMPDVAKCRQWLEKNFPNEFAKLTVENSPKQEAGISEGQGTAGEEEEKKKQKRGGRGQIKQKKKTVPQKVTIAKIPRAKKKYVTRVCGLATFEIDLKEAQRFFAQKFSCGASVTGEDEIIIQGDFTDDIIDVIQEKWPEVDDDSIEDLGEVKK [DENR]
# output satisfied

# input I'd appreciate it if you could say whether `KIDINS220` has solubility in G1/S (log2) at least equal to -0.2.
# output not satisfied
